Test system: OVCAR-5
run description: NCI tumour cell line growth inhibition, 48 h
Activity calls are given as the source filed them. Cut-off read from the data, not from the text of the source: active = GI50 up to about 1.1 µM and inactive = higher.
measured attribute: GI50

compound="COc1cc2c(c(O)c1O)C(=O)C1CCC(=O)N1C2c1cccc2ccccc12 (centres undefined)" result="> 50 µM (inactive)"
compound=SC1=Nc2ccccc2-c2nc(-c3cccc(Cl)c3)cc(-c3ccccc3)c2C1 result="5.77 µM (inactive)"
compound="O=C(O)C(Br)Cc1ccc2c(c1)OCO2 (centres undefined)" result="> 100 µM (inactive)"
compound=COc1ccc(C(=O)Cn2c(C(=O)/C=C/c3ccco3)nc3ccccc32)cc1 result="> 100 µM (inactive)"
compound=C/C=C1\C(=O)O[C@H]2C/C(C)=C/CC/C(C)=C/CC[C@@]3(C)O[C@@H]3C[C@@H]12 result="> 100 µM (inactive)"

Which value of GI50 has been reported for CCOC(=O)/C(I)=C/c1cc(OC)c(OC)c(OC)c1 in the records?
6.52 µM (inactive)

Tell me the measured GI50 of Cc1ccc(C(=O)/C=C/N2CCN(c3cccc(C(F)(F)F)c3)CC2)cc1 , please.
21.4 µM (inactive)

// GI50 lookup, key: Cc1nc2ccc(S(=O)(=O)Nc3ccc(Cl)cc3)cc2c(=O)n1NC(=O)CNc1ccc(Cl)cc1
> 100 µM (inactive)

If you can, please state the reported GI50 value of CCOC(=O)NC(=O)c1cn(CCCOC(=O)CCCCCCCCCCC(=O)OCCCn2cc(C(=O)NC(=O)OCC)c(=O)n(C)c2=O)c(=O)n(C)c1=O .
> 100 µM (inactive)

###

System: Hs-578T
run description: NCI tumour cell line growth inhibition, 48 h
The source made the active and inactive calls. Cut-off read from the data, not from the text of the source: active = GI50 up to about 1.1 µM and inactive = higher.
Overview of recorded GI50 for various compounds

Record excerpt, results attached:
compound=C1=C[C@@H]2c3ccc4cnccc4c3NC[C@@H]2C1 measured_attribute=GI50 result="46.8 µM (inactive)"
compound=N#Cc1c(Cl)cc(C#N)n2c1nc1ccccc12 measured_attribute=GI50 result="25.8 µM (inactive)"
compound="COC(=O)C1C(OS(=O)(=O)O)CCC2CN3CCc4c([nH]c5ccccc45)C3CC21 (stereo not given)" measured_attribute=GI50 result="> 100 µM (inactive)"
compound=COc1cc(C(=O)O)c(-c2cc3c(cc2C=O)OCO3)c(OC)c1OC measured_attribute=GI50 result="> 10 µM (inactive)"
compound="COc1ccc(C(OCC2OC(n3cnc4c(=O)n(Cc5ccccc5[N+](=O)[O-])nnc43)C(O)C2O)(c2ccccc2)c2ccc(OC)cc2)cc1 (stereo not given)" measured_attribute=GI50 result="20.8 µM (inactive)"
compound=C[N+](CCCl)(CCCl)Cc1cccc2cccc([N+](=O)[O-])c12 measured_attribute=GI50 result="> 100 µM (inactive)"
compound="COc1cccc(C2c3cc4c(cc3OC(N3CCOCC3)C2C)OCO4)c1O (stereo not given)" measured_attribute=GI50 result="1.77 µM (inactive)"
compound="COc1cc2c(cc1OC)C13CCN4CC5=CCOC(CC(=O)O)C(C5CC41)C3N2 (stereo not given)" measured_attribute=GI50 result="> 100 µM (inactive)"
compound=O=C(c1cc(Cl)ccc1Cl)N1CCN(C(=O)c2cc(Cl)ccc2Cl)CC1 measured_attribute=GI50 result="> 100 µM (inactive)"
compound=Cc1ccccc1[P+](C)(c1ccccc1C)c1ccccc1C measured_attribute=GI50 result="17.8 µM (inactive)"

Fill in the blank: the reported GI50 of COP(=O)(OC)C(Cc1c[nH]c2ccccc12)NC(=O)OCc1ccccc1 (stereo not given) is ____.
> 100 µM (inactive)

Please give the measured GI50 for this compound: CC(=O)/N=C1\NC(=O)/C(=C/c2ccccc2Cl)N1C
> 100 µM (inactive)

Need GI50 of N#Cc1c(N2CCC(O)C2)c2ccccc2n2c1nc1ccccc12 (stereo not given) , thanks.
29.2 µM (inactive)

GET /values?readout=GI50&item= C/C(N)=N/OCc1nc(C)no1
> 100 µM (inactive)

Endpoint output: GI50 of COC(=O)c1cc(C#N)[nH]c1-c1ccsc1 . Value?
> 100 µM (inactive)

# input compound: CC1(C)CC2=C(SC3C=CC=CC3N2)C(=O)C1C(=O)C(N)=O (stereo not given) ; wanted: its GI50
> 100 µM (inactive)

Need GI50 of C=C(C)[C@H]1CC23C(=O)C(C(=O)C(C)C)=C(O)[C@](C)(C[C@H]2C1(C)C)C3=O , thanks.
23 µM (inactive)

Any idea what its GI50 is? The compound is Cc1cc(C)nc(NC(=S)Nc2cccc(Cl)c2)c1
> 100 µM (inactive)

Could you share which GI50 value was measured for CC(=O)OC[C@@]1(C)[C@@H]2[C@@H]3[C@@]4(CO[C@]3(C)C(=O)[C@@]3(OC(C)=O)C[C@H](C)[C@H](OC(C)=O)[C@@H]3[C@H]4OC(C)=O)[C@H](OC(=O)c3ccccc3)C[C@@H]21 ?
> 100 µM (inactive)

Consider the compound shown here: CCOC(=O)CCC(NC(=O)N1CCN(c2c(C)nc(C)nc2O)CC1)C(=O)OCC (stereo not given) What is its recorded GI50?
> 100 µM (inactive)

###

System: RXF 393
run description: NCI tumour cell line growth inhibition, 48 h
Activity calls are given as the source filed them. Rule as the data show it: active = GI50 up to about 1.1 µM and inactive = higher.
measured attribute: GI50

Which GI50 reading was recorded for the compound COc1ccc(-c2c3c(nc4[nH]c(=S)[nH]c(=S)c24)CCCC3)cc1OC ?
11.9 µM (inactive)

Consider the compound shown here: O=C1CSC2(CC(/C=C/c3ccccc3[N+](=O)[O-])=NN2c2cccc(S(=O)(=O)O)c2)N1c1nc2ccccc2s1 (stereo unspecified) What is its recorded GI50?
23.8 µM (inactive)

Fill in: GI50 of CC(=O)/N=C1\NC(=O)/C(=C/c2ccccc2Cl)N1C is ___
> 100 µM (inactive)

Reported GI50 for O=C(/N=C(/Nc1ccccc1)SCCS/C(=N\C(=O)c1ccccc1)Nc1ccccc1)c1ccccc1 : what is it?
29.6 µM (inactive)

Give the measured GI50 of Clc1cc(OC2C3CC4CC(C3)CC2C4)nc(Cl)n1 (stereo unspecified) .
12.8 µM (inactive)

Requested read-out: GI50. Entry: CC(=O)C1=C(C)NC2C=CC=CN12 (stereo unspecified)
> 100 µM (inactive)

Endpoint output: GI50 of Oc1cc2cc(O)nc(O)c2c(O)n1 . Value?
> 100 µM (inactive)

What value of GI50 has been reported for the following compound? O=C(C#Cc1cnc(O)nc1O)c1ccccc1
1.7 µM (inactive)

Which GI50 value belongs to CC(=O)NCc1c(C(N)=O)ncn1Cc1ccccc1 ?
> 100 µM (inactive)

Param item = CC1=Nc2nc(Cl)cn2C(=O)C1(Cl)Cl ; retrieve measured GI50.
> 10 µM (inactive)

For Nc1nc(Cl)cc(OCC2(CO)CC=CC2)n1 , what is its reported GI50?
> 100 µM (inactive)

###

Test system: OVCAR-3
run description: NCI tumour cell line growth inhibition, 48 h
The source made the active and inactive calls. No stated cut-off is given here; in the data, active = GI50 up to about 1.1 µM and inactive = higher.
The compounds listed here are annotated with their GI50.

# count of solved cases: 2
compound=COc1cc(C(=O)O)c(-c2cc3c(cc2C=O)OCO3)c(OC)c1OC result="> 10 µM (inactive)"
compound=Cc1ccc(-n2cc(-c3ccc(Cl)cc3)c(C#N)c2N)cc1 result="15.6 µM (inactive)"

Look up GI50 for this compound: OC(C/C(=N\N=C(/CC(O)(C(F)(F)F)C(F)(F)F)c1ccccc1)c1ccccc1)(C(F)(F)F)C(F)(F)F
> 10 µM (inactive)

Quick one: GI50 for CCOC(=O)C(NC(=O)CC(C)C)(Nc1ccc(C(F)(F)F)cc1)C(F)(F)F (stereo not given) ?
13.4 µM (inactive)

Which GI50 reading was recorded for the compound Cc1ccc(C(=O)N/N=C(\N=N\c2cccc([N+](=O)[O-])c2)c2ccc(N(C)C)cc2)cc1 ?
34.6 µM (inactive)

Requested field: GI50. Item: CCc1cccc(C(C)C)c1C1C(=O)C(=O)N(c2nc3ccccc3s2)C(=O)C1=O
> 100 µM (inactive)

Fill in the blank: the reported GI50 of COc1ccc(OC)c([N+](=O)[O-])c1-c1nc2sccn2c1/C=N/N=C(N)N is ____.
58.1 µM (inactive)

###

System: M14
run description: NCI tumour cell line growth inhibition, 48 h
Calls of active or inactive are those of the source. Rule as the data show it: active = GI50 up to about 1.1 µM and inactive = higher.
measured attribute: GI50

Known GI50 results, listed for orientation:
molecule=O=C1NC2(CCCC2)/C(=N\O)C12CCCC2 result="> 100 µM (inactive)"
molecule=CC(=O)O[C@H]1[C@@H](N2CCCCC2)C[C@H]2[C@@H]3CC=C4C[C@@H](N5CCCC5)CC[C@]4(C)[C@H]3CC[C@@]21C result="19.2 µM (inactive)"
molecule=C1CSC[C@H]2COC[C@@H](CSCCS1)S2 result="> 100 µM (inactive)"
molecule=Cc1ccc(-n2cc(-c3ccc(Cl)cc3)c(C#N)c2N)cc1 result="15.3 µM (inactive)"
molecule="NC(Cc1ccc(S(=O)(=O)O)cc1)C(=O)NC(Cc1ccc(S(=O)(=O)O)cc1)C(=O)O (configuration not stated)" result="> 100 µM (inactive)"

Item C=C1CCC(O)C/C1=C/C=C1\CCCC2(C)C1CCC2C(C)CCCC(C)C (configuration not stated) has what recorded GI50?
18 µM (inactive)

Consider the molecule shown here: COc1ccc2[nH]c3c(c2c1)[C@H](C)C[C@@H]1C(=O)N(c2ccccc2)C(=O)[C@H]31 What is its recorded GI50?
35.6 µM (inactive)

# get_value(readout='GI50', item= C[N+](C)(C)CC1CCCCC1O (configuration not stated) )
> 100 µM (inactive)

Given the molecule CC1=NC(=Cc2ccc(O)cc2)C(=O)N1n1c(-c2ccccc2)nc2ccccc2c1=O , what is its reported GI50?
> 100 µM (inactive)

Entry CC1CC(=O)Nc2nc3ccccc3n21 (configuration not stated) has what GI50?
> 100 µM (inactive)
